# System: PPARg:RXRa DBDmut IVT, anti-RXR (DBD mutation: RXRa K156A/R161A, NR concentration 270 nM, RXRa partner concentration 90 nM)
# ASSAY EXPLANATION: PBM binding z-score (relative to random genomic background probes); higher = stronger binding; sequences stand for … in GC…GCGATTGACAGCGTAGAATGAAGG
RECORDED ENDPOINT: PBM binding z-score
Number only, no unit.

Example sequences with recorded PBM binding z-score:
1. ATCTCTAGGTAACCAAGTTAAGTGAATGCCGAAC
3.43
2. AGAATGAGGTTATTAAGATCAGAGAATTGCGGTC
3.17
3. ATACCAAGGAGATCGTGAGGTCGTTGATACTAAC
-0.488
4. CGTCCTAGGTCAGCAGGTCAGTGAAAGCGACGTG
3.21

Now take the following sequence into account.
Q. Write down PBM binding z-score measured for item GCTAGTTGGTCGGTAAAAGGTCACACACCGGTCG
A. 0.248
